Experiment description: E. coli acrAB mutant growth effects, primary screen, E. coli filamentation inducers, strain DRC39, OD650, 24 h (AID 1178);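 note: growth measured as culture turbidity by optical density at 650 nm; test concentration not given here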
Measurement context: higher = more signal, called active from +8 up or from −8 down
Decision: z-score compared against -0.8; not below it gives yes, below it gives no.

IN: Can "COc1ccc(-c2cnnc(CCCn3ccnc3-c3ccccc3)n2)cc1" be said to have z-score at or above -0.8?
OUT: no

IN: Confirm if z-score reported for the molecule "C[C@H]1C=CCC(=O)OC[C@H](C)C(=O)N2CCC[C@H]2C(=O)OC1" is -0.8 or above.
OUT: yes

IN: Hi, just wondering whether "O=C1[C@H]2[C@H]3[C@H](O)[C@H](O)CC(=NOC[C@@H](O)COCc4ccco4)[C@@H]3CC[C@H]2C(=O)N1Cc1ccc2c(c1)OCO2" shows z-score of -0.8 or higher.
OUT: yes

IN: Could you verify whether the entry "CCc1cc2c(nc1CC)CCN(CCC(C)=NO[C@@H]1O[C@H](COC(C)=O)[C@@H](OC(C)=O)[C@H](OC(C)=O)[C@H]1OC(C)=O)C2" shows z-score of no less than -0.8?
OUT: no

IN: Could you please find out whether "CC(=O)OC[C@H]1O[C@H](CCON=C(C)CCN2CCCc3nc(C)c(C)cc32)C=C[C@@H]1OC(C)=O" has z-score that meets -0.8 or exceeds it?
OUT: yes

IN: Dear colleague, could you confirm whether "CON=C(C)CCN1CCCCc2nc(C)c(C)cc21" has z-score at or above -0.8?
OUT: yes

IN: For this molecule, is measured z-score -0.8 or higher? CC(CCC(=O)OC[C@H]1O[C@H](C#Cc2ccccc2)C=C[C@@H]1Oc1ccc(C)cc1)=NOC(C)CN1CCCc2nc(C)c(C)cc21 (stereo partly drawn)
OUT: yes

---

Experiment description: FRG1 promoter luciferase signal modulators, primary screen, FRG1 inhibition for FSHD, cell-based, C2C12 myotubes, firefly/Renilla luciferase, luminescence (AID 1084)
Measurement context: higher = more signal, called active from +8 up or from −8 down
Please note: Fulfilled applies when z-score is 0.4 or greater, and Not fulfilled applies otherwise.

IN: Determine whether this compound has z-score no lower than 0.4: "COc1cccc([C@H]2Oc3ccc(OC)cc3C(=NO[C@@H](C)c3cc(-c4c(C)cc(C)cc4C)no3)[C@@H]2O)c1"
OUT: Not fulfilled

IN: Determine whether this compound has z-score no lower than 0.4: C=CC[C@@H]1C=CC(ON=C(C)C)[C@@H](CO)O1 (some centres not stated)
OUT: Fulfilled

IN: Does the compound "CC(=O)OC[C@H]1O[C@H](CC=NO[C@H](C)c2cn([C@@H]3COC[C@H]3O)nn2)C=C[C@@H]1OC(C)=O" have recorded z-score that is 0.4 or more?
OUT: Not fulfilled

IN: Please check the record "O=C1[C@H]2[C@H]3[C@H](O)[C@H](O)CC(=NOCc4ccccc4)[C@@H]3CC[C@H]2C(=O)N1c1cccc(Oc2ccccc2)c1" and state if its z-score is at or above 0.4.
OUT: Not fulfilled

IN: Does the compound "CC(C)CN1CCc2nc(-c3ccccc3)c3c(c2C1)CO[C@@H](C)C3" have recorded z-score that is 0.4 or more?
OUT: Fulfilled

IN: Please indicate if the recorded z-score for "O=C1[C@H]2[C@H]3[C@H](O)[C@H](O)CC(=NOCc4ccccc4)[C@H]3CC[C@H]2C(=O)N1C1CCCCC1" meets or exceeds 0.4.
OUT: Not fulfilled

IN: Quick check: does C[C@@H]1CC[C@H]2C(=O)OC(CN3C(=O)c4ccccc4C3=O)CN2[C@H]1c1ccc(Br)cc1 (some centres not stated) have z-score greater than or equal to 0.4?
OUT: Fulfilled

IN: # check: z-score of "CC(CCN1CCCc2nc(C)c(C)cc21)=NO[C@H](C)c1cn([C@H](CO)Cc2ccccc2)nn1" is greater than or equal to 0.4
OUT: Fulfilled

IN: Item "CC(=O)OC[C@H]1O[C@@H](ON=C2[C@H]3CCn4c(=O)n(-c5ccccc5)c(=O)n4[C@H]3[C@H](O)[C@@H]3O[C@H]23)[C@H](OC(C)=O)[C@@H](OC(C)=O)[C@@H]1OC(C)=O" with z-score of 0.4 or above?
OUT: Not fulfilled

IN: # bool: z-score of "CCN1C(C)=C(C(=O)OC)[C@@H](c2ccccc2)N2C(=O)[C@](O)(C(=O)OC)CC(C(C)=O)=C12" >= 0.4
OUT: Not fulfilled

IN: Threshold query (z-score >= 0.4) on "CC(C)=CCCC(C)=CCON=C1C[C@@H](O)[C@@H](O)[C@@H]2[C@@H]3C(=O)N(c4cccc(Oc5ccccc5)c4)C(=O)[C@@H]3CC[C@H]12"
OUT: Not fulfilled

IN: Please tell me: is the compound CCOC(=O)[C@H](CC(C)C)NC(=O)CCC1CC(OC(=O)NCc2ccc3c(c2)OCO3)CC2(CCCC(COC(=O)NCCOC)O2)O1 (some centres not stated) at or over 0.4 in terms of z-score?
OUT: Fulfilled

IN: Textbook exercise: given the entry "CO[C@H]1COC(=O)[C@H](C)COC(=O)[C@H](C)NC(=O)CC=C[C@H]1C" , state whether its z-score is greater than or equal to 0.4.
OUT: Not fulfilled

IN: Determine whether measured z-score meets or exceeds 0.4 for "COCOc1ccc(Br)cc1C(=O)C=Cc1ccc2c(c1)OCO2"
OUT: Not fulfilled

IN: Assess whether reported z-score for "CO[C@@H]1COC(=O)[C@@H]2CCCN2C(=O)[C@@H](C)COC(=O)CCC[C@H]1C" sits at 0.4 or higher.
OUT: Not fulfilled

IN: Is z-score at least 0.4? Consider "CC#CCOCCC=C1c2ccccc2[C@@H](OC)[C@@H]1C"
OUT: Not fulfilled

IN: Is z-score at least 0.4? Consider "C[C@@H]1C=CCC(=O)OC[C@H](C)C(=O)N[C@@H](Cc2ccccc2)C(=O)OC1"
OUT: Not fulfilled

IN: Tell me whether z-score is at least 0.4 here: "O=C1C2=CC[C@H]3C(=O)N(C[C@@H]4CCCO4)C(=O)[C@H]3[C@H]2[C@H](O)[C@@H]2O[C@H]12"
OUT: Not fulfilled

IN: Form field: z-score at least 0.4? Entry: "CO[C@@H]1COC(=O)CC=C[C@H](C)[C@H](OC)COC(=O)[C@@H]2CCCN2C(=O)CC=C[C@H]1C"
OUT: Not fulfilled

IN: Textbook exercise: given the entry "CCOC(=O)CCN1C(=O)[C@H]2[C@H]3[C@H](O)[C@H](O)CC(=NNC(=O)OCc4ccc(OC)cc4)[C@H]3CC[C@H]2C1=O" , state whether its z-score is greater than or equal to 0.4.
OUT: Not fulfilled

IN: // inclusive: z-score at least 0.4? input: CCOC(=O)[C@H](Cc1ccccc1)NC(=O)CCC1CC(OC(=O)NCc2ccc3c(c2)OCO3)CC2(CCCC(COC(=O)NCCc3ccc(Cl)cc3)O2)O1 (some centres not stated)
OUT: Not fulfilled

IN: Could you tell me if the measured z-score of CC(CCC(=O)OC[C@H]1O[C@H](C#Cc2ccccc2)C=C[C@@H]1Oc1ccc(C)cc1)=NOC(C)CN1CCCc2nc(C)c(C)cc21 (some centres not stated) reaches 0.4 or more?
OUT: Fulfilled

IN: Decide: z-score of CC(CCC(=O)OC[C@H]1O[C@H](C#Cc2ccccc2)C=C[C@@H]1Oc1ccc(C)cc1)=NOC(C)CN1CCCCc2nc(C)c(C)cc21 (some centres not stated) >= 0.4?
OUT: Fulfilled

IN: Form field: z-score at least 0.4? Entry: "CC(CCN1CCCc2nc(C)c(C)cc21)=NOC[C@@H](O)COCc1ccco1"
OUT: Fulfilled

IN: Can "COc1ccc(OC[C@@H](CO)OC)cc1" be said to have z-score at or above 0.4?
OUT: Fulfilled

IN: Does z-score meet or surpass 0.4 for "O=C1[C@H]2[C@H]3[C@H](O)[C@H](O)CC(=NO[C@@H]4O[C@H](CO)[C@@H](O)[C@H](O)[C@H]4O)[C@@H]3CC[C@H]2C(=O)N1c1cccc(Oc2ccccc2)c1" ?
OUT: Fulfilled

IN: Hi team, for "CC(CCN1CCc2nc(-c3ccccc3)c(-c3ccccc3)cc2C1)=NO[C@@H](C)c1cc(-c2c(C)cc(C)cc2C)no1" , is the recorded z-score at or above 0.4?
OUT: Fulfilled

IN: Please tell me: is the compound "COc1ccc(-c2cnnc(CCCn3ccnc3-c3ccccc3)n2)cc1" at or over 0.4 in terms of z-score?
OUT: Fulfilled

IN: Kindly determine if z-score recorded for "CC(CCN1CCCCc2nc(C)c(C)cc21)=NO[C@H](C)c1cn([C@@H]2COC[C@H]2O)nn1" is above or exactly 0.4.
OUT: Not fulfilled
